Just for reference, patent US20090182028A1 is where these values come from.

Biological target: human AhR (Homo sapiens, UniProt P35869)
Construct: expressed in transfected cells; host or cells: Saccharomyces cerevisiae strain YCM3 (gift of Charles Miller)
Sequence (P35869 11-848): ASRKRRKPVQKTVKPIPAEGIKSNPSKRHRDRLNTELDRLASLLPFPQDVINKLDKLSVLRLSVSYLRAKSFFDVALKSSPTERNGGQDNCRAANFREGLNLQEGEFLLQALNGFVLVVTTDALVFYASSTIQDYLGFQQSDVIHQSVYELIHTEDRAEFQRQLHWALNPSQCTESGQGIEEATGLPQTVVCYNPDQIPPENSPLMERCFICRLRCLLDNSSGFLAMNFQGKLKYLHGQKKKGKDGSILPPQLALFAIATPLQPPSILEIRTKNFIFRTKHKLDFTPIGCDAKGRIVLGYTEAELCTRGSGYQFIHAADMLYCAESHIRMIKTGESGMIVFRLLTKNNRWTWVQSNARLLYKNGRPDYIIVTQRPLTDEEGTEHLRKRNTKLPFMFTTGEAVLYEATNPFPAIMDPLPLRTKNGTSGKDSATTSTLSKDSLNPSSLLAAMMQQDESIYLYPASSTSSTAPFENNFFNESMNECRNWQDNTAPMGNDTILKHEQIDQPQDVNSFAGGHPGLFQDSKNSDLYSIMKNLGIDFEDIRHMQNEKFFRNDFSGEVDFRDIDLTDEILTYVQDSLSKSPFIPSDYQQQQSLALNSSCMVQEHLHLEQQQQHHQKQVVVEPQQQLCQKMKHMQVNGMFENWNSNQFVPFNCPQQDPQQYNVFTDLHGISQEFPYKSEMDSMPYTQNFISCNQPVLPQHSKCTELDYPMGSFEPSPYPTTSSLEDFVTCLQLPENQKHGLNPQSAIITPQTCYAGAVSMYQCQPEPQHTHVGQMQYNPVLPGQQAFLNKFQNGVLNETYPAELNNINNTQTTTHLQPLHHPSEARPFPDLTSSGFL
Sequence (P27540 whole entry partner): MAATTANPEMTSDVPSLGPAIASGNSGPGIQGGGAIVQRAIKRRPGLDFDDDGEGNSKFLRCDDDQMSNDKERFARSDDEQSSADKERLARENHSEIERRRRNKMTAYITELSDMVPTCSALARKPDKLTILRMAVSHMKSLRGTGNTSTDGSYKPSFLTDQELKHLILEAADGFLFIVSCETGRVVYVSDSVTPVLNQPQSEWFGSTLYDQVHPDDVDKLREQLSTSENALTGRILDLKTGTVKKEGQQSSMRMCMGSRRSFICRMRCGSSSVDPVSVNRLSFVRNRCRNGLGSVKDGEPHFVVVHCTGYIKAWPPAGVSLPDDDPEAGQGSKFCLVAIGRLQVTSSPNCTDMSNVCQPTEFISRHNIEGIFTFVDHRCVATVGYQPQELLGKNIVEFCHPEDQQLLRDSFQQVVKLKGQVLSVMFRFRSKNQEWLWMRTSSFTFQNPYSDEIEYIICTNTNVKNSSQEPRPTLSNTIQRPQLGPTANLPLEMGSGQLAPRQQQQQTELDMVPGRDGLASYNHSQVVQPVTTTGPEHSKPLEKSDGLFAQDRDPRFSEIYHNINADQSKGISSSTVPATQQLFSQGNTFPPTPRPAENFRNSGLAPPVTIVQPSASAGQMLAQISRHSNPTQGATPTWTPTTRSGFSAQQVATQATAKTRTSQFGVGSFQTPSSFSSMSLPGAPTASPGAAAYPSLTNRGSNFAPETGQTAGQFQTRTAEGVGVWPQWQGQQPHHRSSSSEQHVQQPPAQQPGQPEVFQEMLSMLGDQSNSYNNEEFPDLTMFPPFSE
Experiment: Yeast AhR screen (strain YCM3), assay in plastic tubes
Format: cell-based
Attribute measured: Potency (mol/l)

[
  {
    "Mol smiles": "O=c1c(-c2ccc(O)cc2)coc2cc(O)ccc12",
    "Potency (mol/l)": "no activity"
  },
  {
    "Mol smiles": "CCCCOC(=O)c1ccccc1C(=O)OCCCC",
    "Potency (mol/l)": "no activity"
  },
  {
    "Mol smiles": "Oc1ccc([C@H]2COc3cc(O)ccc3C2)cc1",
    "Potency (mol/l)": "active^c"
  },
  {
    "Mol smiles": "COc1ccc(-c2cc(=O)c3c(OC)c(OC)c(OC)c(OC)c3o2)cc1",
    "Potency (mol/l)": "no activity"
  }
]

Note to self: Potency (mol/l) of O=c1cc(-c2ccc(O)cc2)oc2cc(O)cc(O)c12 with human AhR (Homo sapiens, UniProt P35869) was active^c

Note to self: Potency (mol/l) of O=C(O)c1cc(O)c(O)c(O)c1 with human AhR (Homo sapiens, UniProt P35869) was no activity

====

Target: human AhR (Homo sapiens, UniProt P35869)
Construct: expressed in transfected cells; host or cells: Saccharomyces cerevisiae strain YCM3 (gift of Charles Miller)
Assay: Yeast AhR screen (strain YCM3), assay in plastic tubes
Format: cell-based
Settings: in plastic tubes; logistic dose response fit; read-out: Potency
Attribute measured: pEC50
Please treat pEC50 as minus the base-10 logarithm of the molar concentration.

GET /value?item= O=c1cc(-c2ccccc2)oc2ccc3ccccc3c12 [β-Naphtoflavone] &field=pEC50 returns 8.00

====

Biological target: human AhR (Homo sapiens, UniProt P35869)
Construct: expressed in transfected cells; host or cells: Saccharomyces cerevisiae strain YCM3 (gift of Charles Miller)
Assay: Yeast AhR screen (strain YCM3), assay in plastic tubes
Type: cell-based
Conditions: pure compounds in DMSO

[
  {
    "Mol smiles": "COc1cc(/C=C/C(=O)O)ccc1O",
    "transactivation of the AhR (in words)": "no activity"
  },
  {
    "Mol smiles": "O=C(O)/C=C/c1ccc(O)c(O)c1",
    "transactivation of the AhR (in words)": "no activity"
  }
]

====

Target: human AhR (Homo sapiens, UniProt P35869)
Construct: expressed in transfected cells; host or cells: Saccharomyces cerevisiae strain YCM3 (gift of Charles Miller)
Assay: Yeast AhR assay, format (tubes or microtiterplate) not stated
Format: cell-based
Conditions: reference standard; read-out: EC50 value
Attribute measured: pEC50
Please treat pEC50 as minus the base-10 logarithm of the molar concentration.

GET /value?item= O=c1cc(-c2ccccc2)oc2ccc3ccccc3c12 &field=pEC50 returns 7.55

====

Biological target: human AhR (Homo sapiens)
Construct: expressed in transfected cells; host or cells: Saccharomyces cerevisiae strain YCM3 (gift of Charles Miller)
Test: Yeast AhR screen (strain YCM3), assay in plastic tubes
Assay type: cell-based
Collected pEC50 values appear next to each entry.
Please treat pEC50 as minus the base-10 logarithm of the molar concentration.

[
  {
    "Mol smiles": "COc1ccc(-c2coc3cc(O)cc(O)c3c2=O)cc1",
    "pEC50": 6.22
  },
  {
    "Mol smiles": "O=c1oc2cc(O)ccc2c2oc3cc(O)ccc3c12",
    "pEC50": 5.68
  }
]

Now for a further compound.
GET /value?item= COc1ccc(-c2coc3cc(O)ccc3c2=O)cc1 &field=pEC50 returns 6.03

====

Target: human AhR (Homo sapiens)
Construct: expressed in transfected cells; host or cells: Saccharomyces cerevisiae strain YCM3 (gift of Charles Miller)
Experiment: Yeast AhR assay, format (tubes or microtiterplate) not stated
Type: cell-based
Attribute measured: EC50 (µM)
Your answer is read as µM, so omit the unit and give the number.

Note to self: EC50 of OCc1c[nH]c2ccccc12 with human AhR (Homo sapiens) was 7

====

Target: human AhR (Homo sapiens)
Construct: expressed in transfected cells; host or cells: Saccharomyces cerevisiae strain YCM3 (gift of Charles Miller)
Test: Yeast AhR screen (strain YCM3), assay in microtiterplate
Type: cell-based
Conditions: in microtiterplate; logistic dose response fit; read-out: Potency
Collected pEC50 values appear next to each entry.
Please treat pEC50 as minus the base-10 logarithm of the molar concentration.

[
  {
    "Molecule": "O=c1cc(-c2ccccc2)oc2ccc3ccccc3c12 [β-Naphtoflavone]",
    "pEC50": 6.55
  }
]

GET /value?item= COc1ccc(-c2coc3cc(O)cc(O)c3c2=O)cc1 [Biochanin A] &field=pEC50 returns 6.90

====

Molecular target: human AhR (Homo sapiens, UniProt P35869)
Construct: expressed in transfected cells; host or cells: Saccharomyces cerevisiae strain YCM3 (gift of Charles Miller)
Experiment: Yeast AhR assay, format (tubes or microtiterplate) not stated
Assay type: cell-based
Conditions: Example 10 text; read-out: EC50 value of the standard compound
pEC50: −log10 of the molar value.
Attribute measured: pEC50

Note to self: pEC50 of O=c1cc(-c2ccccc2)oc2ccc3ccccc3c12 with human AhR (Homo sapiens, UniProt P35869) was ~8.00
